src = patent US12514859B2

measured target: IRAK1 (Homo sapiens, UniProt P51617)
Construct: RKO cells were incubated for 16 hours at 37° C. with the indicated concentrations of compounds; endogenous in cells
Sequence (P51617 whole entry): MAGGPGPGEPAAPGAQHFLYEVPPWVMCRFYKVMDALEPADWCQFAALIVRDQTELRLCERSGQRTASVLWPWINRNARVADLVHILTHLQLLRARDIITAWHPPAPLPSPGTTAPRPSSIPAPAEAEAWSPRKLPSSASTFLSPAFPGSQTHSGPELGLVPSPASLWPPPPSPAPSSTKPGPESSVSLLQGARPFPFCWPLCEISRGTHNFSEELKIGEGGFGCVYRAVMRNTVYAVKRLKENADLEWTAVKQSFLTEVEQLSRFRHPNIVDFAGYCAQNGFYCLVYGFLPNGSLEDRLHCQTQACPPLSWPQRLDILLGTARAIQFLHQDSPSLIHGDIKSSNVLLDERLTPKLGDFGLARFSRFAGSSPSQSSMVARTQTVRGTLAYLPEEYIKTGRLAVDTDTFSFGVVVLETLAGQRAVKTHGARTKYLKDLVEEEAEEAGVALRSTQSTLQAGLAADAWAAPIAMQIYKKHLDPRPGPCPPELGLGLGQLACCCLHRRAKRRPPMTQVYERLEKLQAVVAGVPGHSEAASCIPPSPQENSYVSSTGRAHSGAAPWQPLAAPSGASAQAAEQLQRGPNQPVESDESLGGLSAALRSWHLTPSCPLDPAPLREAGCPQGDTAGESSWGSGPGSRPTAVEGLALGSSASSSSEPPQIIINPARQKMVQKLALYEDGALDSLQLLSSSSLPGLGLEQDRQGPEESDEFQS
method description: Kd measurements for the interaction with IRAK1
readout type: Kd
Include the unit after the number when you answer.

structure as smiles	Kd
Cn1ncc(-c2ccnc(N[C@H]3CC[C@H](N)CC3)n2)c1CC1CC1	11 nM

The compound `Cn1ncc(-c2nc(N[C@H]3CC[C@H](N)CC3)ncc2Cl)c1CC1CC1` showed Kd equal to 2.9 nM
